// values below are reported pIC50
target: Human Calpain 1/NS1 (Homo sapiens, UniProt P07384); assay: Calpain inhibition continuous fluorescence (FRET) assay, Human Calpain 1/NS1; type: biochemical; conditions: read-out: Human Calpain 1/NS1 IC50
Sequence (P07384 whole entry, one chain of several): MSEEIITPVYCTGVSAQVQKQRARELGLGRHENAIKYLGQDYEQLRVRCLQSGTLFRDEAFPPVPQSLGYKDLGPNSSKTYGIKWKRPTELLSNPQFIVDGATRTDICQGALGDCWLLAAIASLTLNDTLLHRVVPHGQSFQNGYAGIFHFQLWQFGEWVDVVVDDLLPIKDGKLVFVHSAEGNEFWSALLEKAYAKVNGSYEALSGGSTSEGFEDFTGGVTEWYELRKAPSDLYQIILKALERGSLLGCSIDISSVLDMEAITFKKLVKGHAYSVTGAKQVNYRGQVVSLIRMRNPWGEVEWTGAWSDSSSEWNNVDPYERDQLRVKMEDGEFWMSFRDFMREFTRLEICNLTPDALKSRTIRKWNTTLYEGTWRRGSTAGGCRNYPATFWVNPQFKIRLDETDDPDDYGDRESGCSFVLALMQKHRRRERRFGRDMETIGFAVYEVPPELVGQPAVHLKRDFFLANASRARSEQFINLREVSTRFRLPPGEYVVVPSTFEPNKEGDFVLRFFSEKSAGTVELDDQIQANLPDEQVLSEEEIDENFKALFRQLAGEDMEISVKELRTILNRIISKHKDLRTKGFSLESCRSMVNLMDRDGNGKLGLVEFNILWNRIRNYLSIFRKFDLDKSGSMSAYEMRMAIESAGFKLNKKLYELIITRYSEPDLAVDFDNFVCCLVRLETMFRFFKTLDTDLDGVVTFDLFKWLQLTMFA
pIC50: −log10 of the molar value.
parameter: pIC50

compound="NC(=O)C(=O)[C@H](Cc1ccccc1)NC(=O)c1cc(C2CC2)nn1-c1ccccc1 [Compound 306]" parameter=pIC50 observed_result="5.00 to 5.52"
compound="CC(C)n1cc(C(=O)NC(Cc2ccccc2)C(=O)C(N)=O)c(-c2ccc(F)cc2)n1 (stereo not drawn) [Compound 474]" parameter=pIC50 observed_result="> 5.52"
compound="Cn1cc(C(=O)NC(Cc2ccccc2)C(=O)C(N)=O)c(N2CCOCC2)n1 (stereo not drawn) [Compound 614]" parameter=pIC50 observed_result="5.00 to 5.52"
compound="COc1cccc(-c2nn(C)cc2C(=O)NC(Cc2ccccc2)C(=O)C(N)=O)c1 (stereo not drawn) [Compound 407]" parameter=pIC50 observed_result="> 5.52"
compound="Cc1cc(-c2nn(C)cc2C(=O)NC(Cc2ccccc2)C(=O)C(N)=O)c(C)s1 (stereo not drawn) [Compound 499]" parameter=pIC50 observed_result="> 5.52"
compound="Cc1cc(C(=O)NC(Cc2ccccc2)C(=O)C(N)=O)n(-c2ccc(Oc3ccccc3)cc2)n1 (stereo not drawn) [Compound 439]" parameter=pIC50 observed_result="> 5.52"
compound="NC(=O)C(=O)C(Cc1ccccc1)NC(=O)c1cn(C(F)(F)F)nc1-c1ccccc1 (stereo not drawn) [Compound 489]" parameter=pIC50 observed_result="> 5.52"
compound="Cc1cc(C(=O)NC(Cc2ccccc2)C(=O)C(N)=O)n(-c2ccccn2)n1 (stereo not drawn) [Compound 495]" parameter=pIC50 observed_result="> 5.52"
compound="NC(=O)C(=O)C(Cc1c[nH]c2ccccc12)NC(=O)c1nsnc1-c1ccccc1 (stereo not drawn) [Compound 532]" parameter=pIC50 observed_result="> 5.52"

---

Target: Human Calpain 9/NS1 (Homo sapiens, UniProt O14815)
Sequence (O14815 1-690): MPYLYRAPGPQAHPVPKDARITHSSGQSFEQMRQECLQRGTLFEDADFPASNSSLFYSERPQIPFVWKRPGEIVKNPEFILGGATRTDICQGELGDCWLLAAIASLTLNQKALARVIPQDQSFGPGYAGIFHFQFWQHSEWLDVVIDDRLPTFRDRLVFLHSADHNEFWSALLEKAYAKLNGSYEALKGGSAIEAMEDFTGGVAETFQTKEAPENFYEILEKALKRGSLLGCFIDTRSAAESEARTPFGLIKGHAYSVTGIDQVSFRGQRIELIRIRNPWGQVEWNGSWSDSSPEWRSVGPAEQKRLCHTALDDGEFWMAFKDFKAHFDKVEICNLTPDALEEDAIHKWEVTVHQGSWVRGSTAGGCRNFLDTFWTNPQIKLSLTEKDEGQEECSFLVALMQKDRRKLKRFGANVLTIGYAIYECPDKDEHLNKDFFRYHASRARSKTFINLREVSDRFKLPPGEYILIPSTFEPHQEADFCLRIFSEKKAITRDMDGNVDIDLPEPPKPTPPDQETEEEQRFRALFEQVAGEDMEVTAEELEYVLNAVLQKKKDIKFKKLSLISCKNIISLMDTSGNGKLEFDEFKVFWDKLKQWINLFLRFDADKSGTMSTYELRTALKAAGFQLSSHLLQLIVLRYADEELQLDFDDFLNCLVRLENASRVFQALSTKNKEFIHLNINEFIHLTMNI
Sequence (P04632 1-268 partner): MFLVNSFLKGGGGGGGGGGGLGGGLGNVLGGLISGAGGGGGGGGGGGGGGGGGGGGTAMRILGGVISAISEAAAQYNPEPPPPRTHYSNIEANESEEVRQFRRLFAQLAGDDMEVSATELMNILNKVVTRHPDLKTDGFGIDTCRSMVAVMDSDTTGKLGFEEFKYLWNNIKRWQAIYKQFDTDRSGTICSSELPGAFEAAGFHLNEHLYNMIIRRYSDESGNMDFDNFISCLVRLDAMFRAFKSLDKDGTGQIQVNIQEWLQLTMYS
Experiment: Calpain inhibition continuous fluorescence (FRET) assay, Human Calpain 9/NS1
Type: biochemical
Details: Column C; read-out: Human Calpain 9/NS1 IC50
pIC50: −log10 of the molar value.
Listed compounds paired with reported pIC50
parameter: pIC50

substance_smiles=Cc1nc(C(=O)N[C@@H](Cc2ccccc2)C(=O)C(N)=O)c(-c2ccccc2)[nH]1 target_or_test_system="Human Calpain 9/NS1 (Homo sapiens, UniProt O14815)" observed_result="> 5.52"
substance_smiles=NC(=O)C(=O)[C@H](Cc1ccccc1)NC(=O)[C@@H]1C[C@@H](OCc2ccccc2)CN1c1ccccc1 target_or_test_system="Human Calpain 9/NS1 (Homo sapiens, UniProt O14815)" observed_result="5.00 to 5.52"
substance_smiles=Cn1nnc(-c2ccccc2)c1C(=O)N[C@@H](Cc1ccccc1)C(=O)C(N)=O target_or_test_system="Human Calpain 9/NS1 (Homo sapiens, UniProt O14815)" observed_result="> 5.52"
substance_smiles=Cc1cc(C(=O)N[C@@H](Cc2ccccc2)C(=O)C(N)=O)n(-c2cncc3ccccc23)n1 target_or_test_system="Human Calpain 9/NS1 (Homo sapiens, UniProt O14815)" observed_result="> 5.52"
